- targetEntity: human P2X7 (Homo sapiens (Human), UniProt Q99572)
- Sequence (Q99572 whole entry): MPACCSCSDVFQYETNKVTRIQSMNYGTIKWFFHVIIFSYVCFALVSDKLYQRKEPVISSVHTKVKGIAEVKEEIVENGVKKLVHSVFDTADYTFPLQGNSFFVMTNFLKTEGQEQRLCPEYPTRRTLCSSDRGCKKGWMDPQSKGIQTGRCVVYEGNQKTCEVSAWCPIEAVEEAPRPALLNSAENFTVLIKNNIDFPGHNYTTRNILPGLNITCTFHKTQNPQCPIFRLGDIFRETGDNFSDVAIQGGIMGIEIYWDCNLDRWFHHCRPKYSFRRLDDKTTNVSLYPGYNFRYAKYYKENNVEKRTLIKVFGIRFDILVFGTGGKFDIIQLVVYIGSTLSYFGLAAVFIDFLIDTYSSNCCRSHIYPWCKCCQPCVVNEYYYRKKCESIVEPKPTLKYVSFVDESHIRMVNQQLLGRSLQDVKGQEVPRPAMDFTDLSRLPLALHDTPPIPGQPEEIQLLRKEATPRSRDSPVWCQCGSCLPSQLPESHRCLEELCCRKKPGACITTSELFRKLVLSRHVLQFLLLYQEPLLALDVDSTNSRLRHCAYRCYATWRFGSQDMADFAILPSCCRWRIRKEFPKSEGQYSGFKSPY
- procedureSummary: P2X7 antagonism in human PBMCs (IL-1β release after LPS + Bz-ATP, ELISA)
- Assay type: cell-based
- conditionDetails: human PBMCs, test compound 10 μM
readoutName: PBMC 10 μM (% control)
In your response, put the unit directly after the numeric value.

Examples with their reported PBMC 10 μM (% control) follow.
C[C@H]1c2ncn(-c3ccc(F)cc3)c2CCN1C(=O)c1cccc(C(F)(F)F)c1Cl (single isomer, unassigned)
−1.1 % control
Cc1nccc(-n2nnc3c2CCN(C(=O)c2cccc(C(F)(F)F)c2F)C3C)n1 (stereo not shown)
32.0 % control
CC1c2ncn(-c3ccc(F)cn3)c2CCN1C(=O)c1cccc(C(F)(F)F)c1F (stereo not shown)
−3.6 % control
Cc1ccc(-n2nnc3c2CCN(C(=O)c2cccc(Cl)c2Cl)C3C)nc1 (stereo not shown)
−0.5 % control
C[C@H]1c2nnn(-c3cccc(F)n3)c2CCN1C(=O)c1cccc(C(F)(F)F)c1Cl (single isomer, unassigned)
−8.9 % control
C[C@@H]1Cc2c(nnn2-c2ncccc2F)CN1C(=O)c1cccc(C(F)(F)F)c1Cl (single isomer, unassigned)
4.2 % control

Next item in the queue.
[Q] What value of measured PBMC 10 μM (% control) is listed for Cc1cc(-n2nnc3c2CCN(C(=O)c2ccnc(C(F)(F)F)c2Cl)C3C)ncc1F (stereo not shown) ?
[A] −2.2 % control
